Consider the following binders; for each one, report its EC50.
- target: T1, SARS-CoV-2 S on CHO-S cells (SARS-CoV-2, UniProt P0DTC2 14-1273)
- T1 construct: whole, on cells
- protocol notes: flow cytometry, CHO-S cells
Write the value in nM as a bare number.

In: Would you mind telling me what EC50 value was observed for NRCoV2-07 VHH-Fc (Fc fusion, bivalent VHH-Fc) QVQLVQSGGGLVQPGGSLRLSCAASGVTLDYYAIGWFRQAPGKEREAVSCISSNGRRNHYVASVRGRFTISRDNAKSTVYLQMNSLKPEDTAVYYCAAVQDVHGDNYYCTSPNEYNVWGQGTQVTVSS ?
Out: 1.1

In: Would you kindly share the measured EC50 for NRCoV2-18 VHH-Fc (Fc fusion, bivalent VHH-Fc) EVQLVESGGGLVQAGGSLRLSCVASGITISGYNMAWWRQTRGKQTERVAFINSGGSTTYSDSVKGRFTISRDNGKNTAYLQMNSLNAEDTADYFCSLHTSHDYWGQGTQVTVSS ?
Out: 0.9

In: EC50 for NRCoV2-MRed06 VHH-Fc (Fc fusion, bivalent VHH-Fc) EVQLVESGGGLVQAGGSLRLSCAASGFTLAYYAIGWFRQAPGKEREGVSCISSSDGSAHYADSVKGRFTISRDNAKNTVSLQMNSLKPEDTAVYYCATDSFSSCSDYESGMDFWGKGTQVTVSS ?
Out: 8.5

In: Suppose we examine the binder NRCoV2-MRed20 VHH-Fc (Fc fusion, bivalent VHH-Fc) EVQLVESGGGSVQAGGSLRLSCAASGLSFSSYDMGWFRQAPGKEREFVAAIRESGSGTYYADSVKGRFTISRDNAKNTVYLQVSSLKPEDTAVYTCAAKPPFYGSGTYSTPRAYLYWGQGTQVTVSS ; what EC50 value has been reported?
Out: 6.5
